# Protocol summary: Selectivity for rat recombinant FAAH over KIAA1363
# Ratio IC50 listing for each entry below

Req: Entry O=C(CCCCCCc1ccccc1F)c1ncc(-c2ccccn2)o1 : reported Ratio IC50 = ?
Resp: > 3300

Req: And for Cc1ccc(CCCCCCC(=O)c2ncc(-c3ccccn3)o2)cc1 ?
Resp: > 2500

Req: Again, but for O=C(CCCCCCc1ccccn1)c1ncc(-c2ccccn2)o1
Resp: > 3300

Req: # iterate: COC(=O)c1ccc(CCCCCCC(=O)c2ncc(-c3ccccn3)o2)cc1
Resp: > 400000

Req: Follow-up item: O=C(CCCCCCc1ccc(C(F)(F)F)cc1)c1ncc(-c2ccccn2)o1
Resp: > 10000

Req: What do we get for O=C(CCc1ccc(OCc2ccccc2)cc1)c1ncc(-c2ccccn2)o1 ?
Resp: > 100000

Req: Queued: Cc1cccc(CCCCCCC(=O)c2ncc(-c3ccccn3)o2)c1
Resp: > 3300

Req: Next record, please: CS(=O)(=O)c1ccccc1CCCCCCC(=O)c1ncc(-c2ccccn2)o1
Resp: > 1000

Req: Could you do the same for O=C(COCCCCc1ccccc1)c1ncc(-c2ccccn2)o1 , please?
Resp: > 58

Req: Then what about the molecule O=C(CCc1cccc(OCc2ccccc2)c1)c1ncc(-c2ccccn2)o1 ?
Resp: > 1000

Req: Entry to check: O=C(CCCCCCc1ccsc1)c1ncc(-c2ccccn2)o1
Resp: > 3300

* * *

# Protocol summary: Selectivity for rat recombinant FAAH over TGH
Class key for Ratio IC50 values: low range (below 50), mid range (50 to below 200), high range (200 or more)

Smiles structure	Class name
O=C(CCCCCCc1cccc2ccccc12)c1ncc(-c2ccccn2)o1	low range
COc1ccccc1CCCCCCC(=O)c1ncc(-c2ccccn2)o1	high range
O=C(CCCCCCc1ccsc1)c1ncc(-c2ccccn2)o1	low range

Req: Record O=C(CCCCCCc1cccc(C(F)(F)F)c1)c1ncc(-c2ccccn2)o1 — which class?
Resp: low range

Req: COC(=O)c1ccc(CCCCCCC(=O)c2ncc(-c3ccccn3)o2)cc1 ?
Resp: high range

* * *

Items are presented alongside their recorded pKi.
# Target of assay: Fatty-acid amide hydrolase 1 (Rattus norvegicus, UniProt P97612)
# Protocol summary: Inhibition of rat recombinant FAAH expressed in Escherichia coli
Here pKi is given on a logarithmic scale as minus log10 of the concentration in mol/L.

Req: Bench note: what pKi did COc1ccccc1CCCCCCC(=O)c1ncc(-c2ccccn2)o1 show?
Resp: 8.24

Req: Repeat for the following molecule: O=C(CCCCCCc1ccc([N+](=O)[O-])cc1)c1ncc(-c2ccccn2)o1
Resp: 8.19

Req: Let us now turn to CSc1ccccc1CCCCCCC(=O)c1ncc(-c2ccccn2)o1
Resp: 8.48

Req: Another molecule to look at: OC(CCCCCc1ccccc1)C(O)c1ncc(-c2ccccn2)o1 (stereo unspecified)
Resp: 5.70

Req: // same read-out, input: O=C(CCCCCCc1ccc(C(F)(F)F)cc1)c1ncc(-c2ccccn2)o1
Resp: 8.40

Req: Cool, now CS(=O)(=O)c1ccc(CCCCCCC(=O)c2ncc(-c3ccccn3)o2)cc1
Resp: 7.72

Req: Now this one: O=C(CCCCC#Cc1ccc([N+](=O)[O-])cc1)c1ncc(-c2ccccn2)o1
Resp: 7.51

Req: Subsequent entry: CSc1cccc(CCCCCCC(=O)c2ncc(-c3ccccn3)o2)c1
Resp: 8.38

Req: And for O=C(CS(=O)(=O)CCCCc1ccccc1)c1ncc(-c2ccccn2)o1 ?
Resp: 4.70

* * *

# Target of assay: UniProtKB P97612
# Protocol summary: Inhibition of rat recombinant FAAH expressed in Escherichia coli
The threshold is 40 nM. Values of Ki beneath it are tagged y; values meeting or exceeding it are tagged n.

Sample answers from the record:
Compound	Target of assay	Class name
O=C(CCCC(O)CCc1ccccc1)c1ncc(-c2ccccn2)o1 (stereo unspecified)	UniProtKB P97612	n
O=C(CCCCCCc1ccccc1C(F)(F)F)c1ncc(-c2ccccn2)o1	UniProtKB P97612	y
O=C(CCC(O)CCCc1ccccc1)c1ncc(-c2ccccn2)o1 (stereo unspecified)	UniProtKB P97612	n
O=C(CCCCC#Cc1ccccc1[N+](=O)[O-])c1ncc(-c2ccccn2)o1	UniProtKB P97612	y
CC(C)(C)OC(=O)Nc1cccc(C#CCCCCC(=O)c2ncc(-c3ccccn3)o2)c1	UniProtKB P97612	y

Req: For O=C(CCCCC#Cc1ccccc1Cl)c1ncc(-c2ccccn2)o1 , is the recorded Ki below the cut-off of 40 nM?
Resp: y

Req: Now consider O=C(CCCCc1ccccc1)CC(=O)c1ncc(-c2ccccn2)o1 .
Resp: n

Req: Now consider O=C(CCCCC#Cc1ccc(C(F)(F)F)cc1)c1ncc(-c2ccccn2)o1 .
Resp: n

Req: Also O=C(CCCCC#Cc1cccc(F)c1)c1ncc(-c2ccccn2)o1 ?
Resp: y

Req: And O=C(CCCC(=O)c1ncc(-c2ccccn2)o1)NCc1ccccc1 ?
Resp: n

* * *

# Protocol summary: Selectivity for rat recombinant FAAH over KIAA1363
Measured quantity: Ratio IC50

Smiles structure	Ratio IC50
O=C(CCCCCCc1ccccc1C(F)(F)F)c1ncc(-c2ccccn2)o1	> 3300

Req: Suppose we examine the compound O=C(CCCCCCc1ccc(F)cc1)c1ncc(-c2ccccn2)o1 ; what Ratio IC50 value has been reported?
Resp: > 5000

Req: Same question, O=C(CCc1ccc(Nc2ccccc2)cc1)c1ncc(-c2ccccn2)o1 this time
Resp: > 20000

* * *

# Protocol summary: Selectivity for rat recombinant FAAH over KIAA1363
Measured quantity: Ratio IC50

Smiles structure	Ratio IC50
O=C(CCCCCCc1cccc(Cl)c1Cl)c1ncc(-c2ccccn2)o1	> 14000
O=C(CCCCCCc1cccc(Cl)c1)c1ncc(-c2ccccn2)o1	> 50000
O=C(CCCCCCc1ccc(Cl)cc1)c1ncc(-c2ccccn2)o1	> 3300

Req: Which Ratio IC50 value is on record for CSc1cccc(CCCCCCC(=O)c2ncc(-c3ccccn3)o2)c1 ?
Resp: > 10000

Req: Let us now turn to O=C(CCCCCCc1ccc2ccccc2c1)c1ncc(-c2ccccn2)o1
Resp: > 2500

Req: Likewise for COc1cccc(CCCCCCC(=O)c2ncc(-c3ccccn3)o2)c1 ?
Resp: > 5000

* * *

# Target of assay: Fatty-acid amide hydrolase 1 (Rattus norvegicus, UniProt P97612)
# Protocol summary: Inhibition of rat recombinant FAAH expressed in Escherichia coli
Examples of compounds with documented pKi follow.
API: returns pKi as number; meaning -log10 of concentration in mol/L.

Below, each entry is followed by its recorded pKi result.
Compound	Measured quantity	Result
COC(=O)CCCC(=O)c1ncc(-c2ccccn2)o1	pKi	5.15
O=C(CCCCC#Cc1cccnc1)c1ncc(-c2ccccn2)o1	pKi	6.52
O=C(CC(O)CCCCc1ccccc1)c1ncc(-c2ccccn2)o1 (centres undefined)	pKi	7.46

Req: Give pKi (Fatty-acid amide hydrolase 1 (Rattus norvegicus, UniProt P97612)) of the following compound: O=C(CCCCOCc1ccccc1)c1ncc(-c2ccccn2)o1
Resp: 7.26

* * *

Reported Ki values are given for each entry in this list.
# Target of assay: Fatty-acid amide hydrolase 1 (Rattus norvegicus)
# Sequence (P97612 whole entry): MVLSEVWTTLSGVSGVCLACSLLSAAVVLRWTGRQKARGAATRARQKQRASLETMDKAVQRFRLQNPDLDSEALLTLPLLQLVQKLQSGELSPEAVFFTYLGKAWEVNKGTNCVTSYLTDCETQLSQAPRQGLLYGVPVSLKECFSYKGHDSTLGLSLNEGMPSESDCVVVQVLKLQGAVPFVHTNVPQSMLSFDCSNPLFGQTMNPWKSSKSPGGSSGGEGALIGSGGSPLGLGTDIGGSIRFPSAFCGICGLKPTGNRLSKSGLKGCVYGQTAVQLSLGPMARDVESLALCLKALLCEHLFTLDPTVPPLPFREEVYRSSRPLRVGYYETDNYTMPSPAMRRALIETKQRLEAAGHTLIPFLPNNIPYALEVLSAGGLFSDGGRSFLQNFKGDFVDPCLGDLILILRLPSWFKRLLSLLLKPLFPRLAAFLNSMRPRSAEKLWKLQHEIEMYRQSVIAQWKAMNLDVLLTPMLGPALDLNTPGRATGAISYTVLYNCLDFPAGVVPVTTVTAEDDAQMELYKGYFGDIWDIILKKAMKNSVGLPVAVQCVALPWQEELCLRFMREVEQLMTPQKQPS
# Protocol summary: Inhibition of rat recombinant FAAH expressed in Escherichia coli
Your answer is read as nM, so omit the unit and give the number.

// known answers, use as guide
Compound	Units text	Ki
CN(CCCC(=O)c1ncc(-c2ccccn2)o1)CCc1ccccc1	nM	3500
O=C(CCCCCCc1ccsc1)c1ncc(-c2ccccn2)o1	nM	5.1
COC(=O)c1cccc(CCCCCCC(=O)c2ncc(-c3ccccn3)o2)c1	nM	1.9
O=C(CCCCC#Cc1ccc(Cl)cc1)c1ncc(-c2ccccn2)o1	nM	20
O=C(CCCCC[S+]([O-])c1ccccc1)c1ncc(-c2ccccn2)o1 (stereo unspecified)	nM	1000

Req: Looking for the measured Ki of O=C(CCCCCCc1cccc(Cl)c1Cl)c1ncc(-c2ccccn2)o1 , can you help?
Resp: 0.9
